src = patent US20150141411A1

Where a name gives a salt, the structure may show the parent alone.
Parameter threshold = 200 °C. Response is YES when melting point meets or exceeds it, else NO.

1. Cc1cn(-c2ccc3n(c2=O)C[C@@H](C)N(Cc2ccc(C)c(-n4cccn4)c2)C3=O)cn1 (as salt: HCl) | NO
2. Cc1cn(-c2ccc3n(c2=O)CCN(C(C)c2cn(C)c4cc(F)c(Cl)cc24)C3=O)cn1 (single isomer, unassigned) [compound 186] | YES
3. Cc1cn(-c2ccc3n(c2=O)CC(C)N(C(C)c2c[nH]c4c(F)cc(Cl)cc24)C3=O)cn1 (single isomer, unassigned) | YES
4. Cc1cn(-c2ccc3n(c2=O)CCN(Cc2cn(C)c4cc(Cl)c(Cl)cc24)C3=O)cn1 | YES
5. Cc1cn(-c2ccc3n(c2=O)CC(C)N(C(C)c2cn(C)c4cc(F)c(Cl)cc24)C3=O)cn1 (single isomer, unassigned) [compound 190] | YES

----------
tested-on: γ-secretase (Homo sapiens, UniProt P49768)
Construct: endogenous in cells; host or cells: SKNBE2 human neuroblastoma cells (carrying hAPP 695 wild type as substrate)
assay-protocol: Screening for γ-secretase-modulating activity: Aβ42 in supernatant of SKNBE2 cells carrying hAPP 695 wild type (Alphalisa)
Format: cell-based
conditions-used: SKNBE2 human neuroblastoma cells carrying hAPP 695 wild type, overnight incubation, Aβ42 in cell supernatant
So basically, if IC50 comes in under 200 nM it's Y, and if it's 200 nM or more it's N.

1) Cc1cn(-c2ccc3n(c2=O)C[C@@H](C)N(Cc2cc(C(F)(F)F)ccc2F)C3=O)cn1 | N
2) Cc1cn(-c2ccc3n(c2=O)CCN(Cc2ccc(OC(F)(F)F)cc2C)C3=O)cn1 | N
3) Cc1cncn1-c1ccc2n(c1=O)CCCN(Cc1ccc(Cl)c(Cl)c1)C2=O | N
4) CCOc1cc(C(C)N2C(=O)c3ccc(-n4cnc(C)c4)c(=O)n3C[C@H]2C)cc(C(F)(F)F)c1 (single isomer, unassigned) [compound 144] | Y
5) Cc1cn(-c2ccc3n(c2=O)C[C@@H](C)N(Cc2ccc(C)c(OCC4CC4)c2)C3=O)cn1 | Y
6) Cc1cn(-c2ccc3n(c2=O)C[C@@H](CN(C)C)N(Cc2cc(C(F)(F)F)cc(C(F)(F)F)c2)C3=O)cn1 | N
7) Cc1cn(-c2ccc3n(c2=O)C[C@@H](C)N(C(C)c2cc(Cl)cc(Cl)c2)C3=O)cn1 (single isomer, unassigned) [compound 211] | Y
8) Cc1cn(-c2ccc3n(c2=O)CC(C)N(Cc2cc(OCC4CC4)cc(C(F)(F)F)c2)C3=O)cn1.Cl (centres unmarked) | Y
9) Cc1cn(-c2ccc3n(c2=O)CC(C)N(C(C)c2cn(C)c4c(F)cc(Cl)cc24)C3=O)cn1 (single isomer, unassigned) [compound 223] | N
10) Cc1cn(-c2ccc3n(c2=O)CCN(Cc2cccc(N4CCOCC4)c2)C3=O)cn1 | N
11) Cc1cn(-c2ccc3n(c2=O)C(C)C(C)N(Cc2cc(C(F)(F)F)cc(C(F)(F)F)c2)C3=O)cn1 (single isomer, unassigned) [14a] | N
12) Cc1cn(-c2ccc3n(c2=O)CC(C)N(Cc2cn(C)c4cc(Br)ccc24)C3=O)cn1 (centres unmarked) | Y
13) Cc1cn(-c2c(Br)cc3n(c2=O)C[C@@H](C)N(Cc2cc(C(F)(F)F)cc(C(F)(F)F)c2)C3=O)cn1 | N
14) Cc1cn(-c2ccc3n(c2=O)CCN(Cc2nccc(OCC(F)(F)F)c2C)C3=O)cn1 | N
15) Cc1cn(-c2ccc3n(c2=O)CCN(CCc2ccc(Cl)cc2)C3=O)cn1 | N
16) Cc1cn(-c2ccc3n(c2=O)C[C@@H](C)N(Cc2cc(C4CC4)cc(C(F)(F)F)c2)C3=O)cn1 | Y
17) Cc1cn(-c2ccc3n(c2=O)C[C@@H](C)N(Cc2ccc(F)c(F)c2)C3=O)cn1 | N
18) Cc1cn(-c2ccc3n(c2=O)CCN(Cc2cn(C)c4cc(Cl)c(Cl)cc24)C3=O)cn1 | Y
19) Cc1cn(-c2ccc3n(c2=O)CCN(C(C)c2c[nH]c4cc(F)c(Cl)cc24)C3=O)cn1 (single isomer, unassigned) [compound 183] | Y
20) C[C@@H]1Cn2c(ccc(-n3ccnc3)c2=O)C(=O)N1Cc1cc(C(F)(F)F)cc(C(F)(F)F)c1 | N
21) CCC(c1cc(OC)cc(C(F)(F)F)c1)N1C(=O)c2ccc(-n3cnc(C)c3)c(=O)n2C[C@H]1C (single isomer, unassigned) [compound 141] | Y
22) Cc1cn(-c2ccc3n(c2=O)CCN(Cc2cccc(N4CCCCC4)c2C)C3=O)cn1 | N
23) Cc1cn(-c2ccc3n(c2=O)CC(C)N(Cc2c[nH]c4cc(Cl)ccc24)C3=O)cn1 (centres unmarked) | Y
24) CCn1cc(CN2C(=O)c3ccc(-n4cnc(C)c4)c(=O)n3C[C@H]2C)c2cc(C3CC3)ccc21 | Y
25) Cc1cn(-c2ccc3n(c2=O)C[C@@H](C)N(Cc2cn(C)c4ccc(C5CC5)cc24)C3=O)cn1 | Y
26) Cc1cn(-c2ccc3n(c2=O)C[C@@H](C)N(Cc2cn(C)c4ccc(OC(F)(F)F)cc24)C3=O)cn1 | Y
27) Cc1cn(-c2ccc3n(c2=O)CC(C)N(C(C)c2cn(C(C)C)c4cc(F)c(Cl)cc24)C3=O)cn1 (single isomer, unassigned) [compound 194] | Y
28) Cc1cn(-c2ccc3n(c2=O)CCN(Cc2cccc(OC(F)(F)F)c2)C3=O)cn1 | N
29) Cc1cn(-c2ccc3n(c2=O)CCN(Cc2ccc(C)c(N4CCCCC4)c2)C3=O)cn1 | Y

----------
As shown below, each of these compounds has a reported IC50 value.
tested-on: γ-secretase (Homo sapiens, UniProt P49768)
Construct: endogenous in cells; host or cells: SKNBE2 human neuroblastoma cells (carrying hAPP 695 wild type as substrate)
assay-protocol: Screening for γ-secretase-modulating activity: Aβtotal in supernatant of SKNBE2 cells carrying hAPP 695 wild type (Alphalisa)
Assay type: cell-based
conditions-used: SKNBE2 human neuroblastoma cells carrying hAPP 695 wild type, overnight incubation, Aβtotal in cell supernatant
endpoint-name: IC50

1) Cc1cn(-c2ccc3n(c2=O)C[C@@H](C)N(Cc2csc4ccc(Cl)cc24)C3=O)cn1 | > 10 µM
2) Cc1cn(-c2ccc3n(c2=O)C[C@@H](C)N(Cc2cn(C)c4c(C(F)(F)F)cc(F)cc24)C3=O)cn1 | > 10 µM
3) Cc1cn(-c2ccc3n(c2=O)C[C@@H](C)N(C(C)c2cc(C(F)(F)F)cc(C(F)(F)F)c2)C3=O)cn1 (mixture of isomers) | > 10 µM
4) Cc1cn(-c2ccc3n(c2=O)CCN(Cc2cn(C)c4cc(Cl)c(Cl)cc24)C3=O)cn1 | 6 µM

----------
tested-on: γ-secretase (Homo sapiens)
Construct: endogenous in cells; host or cells: SKNBE2 human neuroblastoma cells (carrying hAPP 695 wild type as substrate)
assay-protocol: Screening for γ-secretase-modulating activity: Aβ42 in supernatant of SKNBE2 cells carrying hAPP 695 wild type (Alphalisa)
Format: cell-based
conditions-used: SKNBE2 human neuroblastoma cells carrying hAPP 695 wild type, overnight incubation, Aβ42 in cell supernatant
pIC50: −log10 of the molar value.
pIC50 for assorted compounds
endpoint-name: pIC50

1. Cc1cn(-c2ccc3n(c2=O)CCN(C(C)c2cc(F)cc(C(F)(F)F)c2)C3=O)cn1 (stereo not shown) | 5.85
2. COc1cc(C(C)N2C(=O)c3ccc(-n4cnc(C)c4)c(=O)n3C[C@H]2C)cc(C(F)(F)F)c1 (single isomer, unassigned) [compound 149] | 6.52
3. Cc1cn(-c2ccc3n(c2=O)C[C@@H](C)N(Cc2cc(Cl)cc(C(F)(F)F)c2)C3=O)cn1 | 6.72
4. Cc1cn(-c2ccc3n(c2=O)C[C@@H](C)N(Cc2cc(N4CCC(C(F)(F)F)CC4)ccc2Cl)C3=O)cn1 | 6.66

----------
tested-on: γ-secretase (Homo sapiens, UniProt P49768)
Construct: endogenous in cells; host or cells: SKNBE2 human neuroblastoma cells (carrying hAPP 695 wild type as substrate)
assay-protocol: Screening for γ-secretase-modulating activity: Aβ42 in supernatant of SKNBE2 cells carrying hAPP 695 wild type (Alphalisa)
Assay type: cell-based
conditions-used: SKNBE2 human neuroblastoma cells carrying hAPP 695 wild type, overnight incubation, Aβ42 in cell supernatant
Measured IC50 values are reported for all entries that follow.
endpoint-name: IC50 (nM)

1) Cc1cn(-c2ccc3n(c2=O)C[C@@H](C)N(Cc2c[nH]c4cc(F)c(Cl)cc24)C3=O)cn1 [compound 195] | 30
2) Cc1cn(-c2ccc3n(c2=O)C[C@@H](C)N(Cc2cccc(Cl)c2C)C3=O)cn1 [compound 40] | 510
3) Cc1cn(-c2ccc3n(c2=O)C[C@@H](C)N(Cc2cn(C)c4cc(C(F)(F)F)c(F)cc24)C3=O)cn1 [compound 258] | 20
4) Cc1cn(-c2ccc3n(c2=O)C[C@@H](C)N(Cc2cn(C)c4cc(F)c(Cl)cc24)C3=O)cn1 [compound 196] | 20
5) Cc1cn(-c2ccc3n(c2=O)CCN(C(C)c2cccc(Cl)c2Cl)C3=O)cn1 (racemic) [compound 10] | 220
6) CCC(c1cc(OC)cc(C(F)(F)F)c1)N1C(=O)c2ccc(-n3cnc(C)c3)c(=O)n2C[C@H]1C (single isomer, unassigned) [compound 142] | 210
7) Cc1cn(-c2ccc3n(c2=O)C[C@@H](C)N(C(C)c2cc(Cl)cc(Cl)c2)C3=O)cn1 (single isomer, unassigned) [compound 210] | 260
